# System: Rattus norvegicus
# Assay info: Gastrointestinal toxicity in Wistar albino rat assessed as incidence of stomach ulceration at 0.029 mmol/kg, po
# Type: organism-based
# Measurement context: in vivo
Endpoint name: Activity

Solved cases (4 shown):
[[record]]
compound = "Cc1cc(C)n(C(=O)c2nc3c(c(=O)[nH]2)C2CCCN2C(=O)N3c2ccccc2)n1 (stereo not given)"
meas_value = "Non-toxic"

[[record]]
compound = "CCOC(=O)Cc1nc2c(c(=O)[nH]1)C1CCCN1C(=O)N2c1ccccc1 (stereo not given)"
meas_value = "Non-toxic"

[[record]]
compound = "O=C(N/N=C/c1ccccc1)c1nc2c(c(=O)[nH]1)C1CCCN1C(=O)N2c1ccccc1 (stereo not given)"
meas_value = "Toxic"

[[record]]
compound = "O=C(NN=C(c1ccccc1)c1ccccc1)c1nc2c(c(=O)[nH]1)C1CCCN1C(=O)N2c1ccccc1 (stereo not given)"
meas_value = "Non-toxic"


Let us move to another entry and its Activity.
So what's the measured Activity for this one? C/C(=N\NC(=O)c1nc2c(c(=O)[nH]1)C1CCCN1C(=O)N2c1ccccc1)c1ccccc1 (stereo not given) Toxic

* * *

# Tested on: Rattus norvegicus
# Assay info: Antiinflammatory activity in Wistar albino rat assessed as inhibition of carrageenan-induced paw edema at 0.029 mmol/kg, po dosed 1 hr before carrageenan challenge measured 3 hrs post carrageenan-induced inflammation
Endpoint name: inhibition in vivo at 29 µmol/kg (%)
Return type: number; implicit unit %.

So what's the measured inhibition in vivo at 29 µmol/kg for this one? O=C(O)c1nc2c(c(=O)[nH]1)C1CCCN1C(=O)N2c1ccccc1 (centres undefined) 66

So what's the measured inhibition in vivo at 29 µmol/kg for this one? CCO/C=N/NC(=O)c1nc2c(c(=O)[nH]1)C1CCCN1C(=O)N2c1ccccc1 (centres undefined) 64

So what's the measured inhibition in vivo at 29 µmol/kg for this one? O=C1CC(O)=NN1C(=O)c1nc2c(c(=O)[nH]1)C1CCCN1C(=O)N2c1ccccc1 (centres undefined) 49

So what's the measured inhibition in vivo at 29 µmol/kg for this one? `Cc1ccc(-c2cc(C(F)(F)F)nn2-c2ccc(S(N)(=O)=O)cc2)cc1` 47

So what's the measured inhibition in vivo at 29 µmol/kg for this one? O=C(O)Cc1nc2c(c(=O)[nH]1)C1CCCN1C(=O)N2c1ccccc1 (centres undefined) 72

So what's the measured inhibition in vivo at 29 µmol/kg for this one? COc1ccc(/C=N/NC(=O)c2nc3c(c(=O)[nH]2)C2CCCN2C(=O)N3c2ccccc2)cc1O (centres undefined) 46

So what's the measured inhibition in vivo at 29 µmol/kg for this one? Nc1cc(=O)[nH]n1C(=O)c1nc2c(c(=O)[nH]1)C1CCCN1C(=O)N2c1ccccc1 (centres undefined) 45

So what's the measured inhibition in vivo at 29 µmol/kg for this one? O=C(N/N=C/c1ccccc1)c1nc2c(c(=O)[nH]1)C1CCCN1C(=O)N2c1ccccc1 (centres undefined) 53

So what's the measured inhibition in vivo at 29 µmol/kg for this one? O=C(NN=C(c1ccccc1)c1ccccc1)c1nc2c(c(=O)[nH]1)C1CCCN1C(=O)N2c1ccccc1 (centres undefined) 51

* * *

# System: Mus musculus
# Assay info: Analgesic activity in Swiss albino mouse assessed as inhibition of acetic acid-induced writhing at 0.029 mmol/kg. po dosed 1 hr before acetic acid challenge and measured during 30 mins post acetic acid challenge
# Assay type: functional
Kindly supply the reported inhibition in vivo at 29 µmol/kg values for the records listed here.
Return type: number; implicit unit %.

So what's the measured inhibition in vivo at 29 µmol/kg for this one? O=C(N/N=C/c1ccc(Cl)cc1)c1nc2c(c(=O)[nH]1)C1CCCN1C(=O)N2c1ccccc1 (centres undefined) 34.8

So what's the measured inhibition in vivo at 29 µmol/kg for this one? O=C(N/N=C/c1ccccc1)c1nc2c(c(=O)[nH]1)C1CCCN1C(=O)N2c1ccccc1 (centres undefined) 57.6

So what's the measured inhibition in vivo at 29 µmol/kg for this one? Cc1cc(C)n(C(=O)c2nc3c(c(=O)[nH]2)C2CCCN2C(=O)N3c2ccccc2)n1 (centres undefined) 62.1

So what's the measured inhibition in vivo at 29 µmol/kg for this one? O=C(NN=C(c1ccccc1)c1ccccc1)c1nc2c(c(=O)[nH]1)C1CCCN1C(=O)N2c1ccccc1 (centres undefined) 81.9

* * *

# Assay info: Lipophilicity, log P of the compound
# Format: physicochemical
# Measurement context: octanol/water
Label criterion met when logP is at or above 2; otherwise label criterion not met.

Is it the case that C/C(=N\NC(=O)c1nc2c(c(=O)[nH]1)C1CCCN1C(=O)N2c1ccccc1)c1ccc(Cl)cc1 (stereo not drawn) has logP reaching or exceeding 2? criterion met

Is it the case that COc1ccc(/C=N/NC(=O)c2nc3c(c(=O)[nH]2)C2CCCN2C(=O)N3c2ccccc2)cc1O (stereo not drawn) has logP reaching or exceeding 2? criterion met

Is it the case that O=C(N/N=C/c1ccc(Cl)cc1)c1nc2c(c(=O)[nH]1)C1CCCN1C(=O)N2c1ccccc1 (stereo not drawn) has logP reaching or exceeding 2? criterion met

Is it the case that Cc1cc(=O)n(C(=O)c2nc3c(c(=O)[nH]2)C2CCCN2C(=O)N3c2ccccc2)[nH]1 (stereo not drawn) has logP reaching or exceeding 2? criterion not met

Is it the case that O=C(N/N=C/c1ccccc1)c1nc2c(c(=O)[nH]1)C1CCCN1C(=O)N2c1ccccc1 (stereo not drawn) has logP reaching or exceeding 2? criterion met

Is it the case that CCOC(=O)Cc1nc2c(c(=O)[nH]1)C1CCCN1C(=O)N2c1ccccc1 (stereo not drawn) has logP reaching or exceeding 2? criterion not met

Is it the case that O=C1CC(O)=NN1C(=O)c1nc2c(c(=O)[nH]1)C1CCCN1C(=O)N2c1ccccc1 (stereo not drawn) has logP reaching or exceeding 2? criterion not met

Is it the case that O=C(O)Cc1nc2c(c(=O)[nH]1)C1CCCN1C(=O)N2c1ccccc1 (stereo not drawn) has logP reaching or exceeding 2? criterion not met

Is it the case that Nc1cc(=O)[nH]n1C(=O)c1nc2c(c(=O)[nH]1)C1CCCN1C(=O)N2c1ccccc1 (stereo not drawn) has logP reaching or exceeding 2? criterion not met

Is it the case that C/C(=N\NC(=O)c1nc2c(c(=O)[nH]1)C1CCCN1C(=O)N2c1ccccc1)c1ccccc1 (stereo not drawn) has logP reaching or exceeding 2? criterion met

Is it the case that O=C(O)c1nc2c(c(=O)[nH]1)C1CCCN1C(=O)N2c1ccccc1 (stereo not drawn) has logP reaching or exceeding 2? criterion not met

Is it the case that NNC(=O)c1nc2c(c(=O)[nH]1)C1CCCN1C(=O)N2c1ccccc1 (stereo not drawn) has logP reaching or exceeding 2? criterion not met

* * *

# Test system: Mus musculus
# Assay info: Analgesic activity in Swiss albino mouse assessed as inhibition of acetic acid-induced writhing at 0.029 mmol/kg. po dosed 1 hr before acetic acid challenge and measured during 30 mins post acetic acid challenge
# Type: functional
Endpoint name: inhibition in vivo at 29 µmol/kg
Units required after the number.

Requested read-out inhibition in vivo at 29 µmol/kg, target or system Mus musculus, entry Cc1cc(-c2ccccc2)nn1C(=O)c1nc2c(c(=O)[nH]1)C1CCCN1C(=O)N2c1ccccc1 (centres undefined) 39.6%

Requested read-out inhibition in vivo at 29 µmol/kg, target or system Mus musculus, entry COc1ccc(/C=N/NC(=O)c2nc3c(c(=O)[nH]2)C2CCCN2C(=O)N3c2ccccc2)cc1 (centres undefined) 71.8%

Requested read-out inhibition in vivo at 29 µmol/kg, target or system Mus musculus, entry O=C(O)c1nc2c(c(=O)[nH]1)C1CCCN1C(=O)N2c1ccccc1 (centres undefined) 64.7%

Requested read-out inhibition in vivo at 29 µmol/kg, target or system Mus musculus, entry COc1ccc(/C=N/NC(=O)c2nc3c(c(=O)[nH]2)C2CCCN2C(=O)N3c2ccccc2)cc1O (centres undefined) 43.8%

Requested read-out inhibition in vivo at 29 µmol/kg, target or system Mus musculus, entry NNC(=O)c1nc2c(c(=O)[nH]1)C1CCCN1C(=O)N2c1ccccc1 (centres undefined) 32.2%

Requested read-out inhibition in vivo at 29 µmol/kg, target or system Mus musculus, entry Cc1cc(=O)n(C(=O)c2nc3c(c(=O)[nH]2)C2CCCN2C(=O)N3c2ccccc2)[nH]1 (centres undefined) 61%

Requested read-out inhibition in vivo at 29 µmol/kg, target or system Mus musculus, entry O=C1CC(O)=NN1C(=O)c1nc2c(c(=O)[nH]1)C1CCCN1C(=O)N2c1ccccc1 (centres undefined) 61.9%

Requested read-out inhibition in vivo at 29 µmol/kg, target or system Mus musculus, entry Nc1cc(=O)[nH]n1C(=O)c1nc2c(c(=O)[nH]1)C1CCCN1C(=O)N2c1ccccc1 (centres undefined) 70.3%

Requested read-out inhibition in vivo at 29 µmol/kg, target or system Mus musculus, entry C/C(=N\NC(=O)c1nc2c(c(=O)[nH]1)C1CCCN1C(=O)N2c1ccccc1)c1ccc(Cl)cc1 (centres undefined) 62.1%
